- System: Mycobacterium tuberculosis Erdman (autoluminescent)
- METHOD SUMMARY: total FIC50 (Loewe) at 50% inhibition, three-drug combination (log2); higher = more antagonistic
- RUN PARAMETERS: in vitro model: cholesterol-high 0.2 mM; time point: terminal (~4-5 doublings, model-specific)
Rule: total FIC50 under 0.7 gives 0, otherwise 1.

MOLECULE	CLASS NAME
COc1nc2ccc(Br)cc2cc1[C@@H](c1ccccc1)[C@@](O)(CCN(C)C)c1cccc2ccccc12 [bedaquiline] + CC(=O)NC[C@H]1CN(c2ccc(N3CCOCC3)c(F)c2)C(=O)O1 [linezolid] + COc1c(N2C[C@@H]3CCCN[C@@H]3C2)c(F)cc2c(=O)c(C(=O)O)cn(C3CC3)c12 [moxifloxacin]	0
COc1nc2ccc(Br)cc2cc1[C@@H](c1ccccc1)[C@@](O)(CCN(C)C)c1cccc2ccccc12 [bedaquiline] + COc1c(N2C[C@@H]3CCCN[C@@H]3C2)c(F)cc2c(=O)c(C(=O)O)cn(C3CC3)c12 [moxifloxacin] + CO[C@H]1/C=C/O[C@@]2(C)Oc3c(C)c(O)c4c(O)c(c(/C=N/N5CCN(C6CCCC6)CC5)c(O)c4c3C2=O)NC(=O)/C(C)=C\C=C\[C@H](C)[C@H](O)[C@@H](C)[C@@H](O)[C@@H](C)[C@H](OC(C)=O)[C@@H]1C [rifapentine]	1
NNC(=O)c1ccncc1 [isoniazid] + COc1c(N2C[C@@H]3CCCN[C@@H]3C2)c(F)cc2c(=O)c(C(=O)O)cn(C3CC3)c12 [moxifloxacin] + NC(=O)c1cnccn1 [pyrazinamide]	1
CC(=O)NC[C@H]1CN(c2ccc(N3CCOCC3)c(F)c2)C(=O)O1 [linezolid] + NC(=O)c1cnccn1 [pyrazinamide] + CO[C@H]1/C=C/O[C@@]2(C)Oc3c(C)c(O)c4c(O)c(c(/C=N/N5CCN(C)CC5)c(O)c4c3C2=O)NC(=O)/C(C)=C\C=C\[C@H](C)[C@H](O)[C@@H](C)[C@@H](O)[C@@H](C)[C@H](OC(C)=O)[C@@H]1C	0
NNC(=O)c1ccncc1 [isoniazid] + CC(=O)NC[C@H]1CN(c2ccc(N3CCOCC3)c(F)c2)C(=O)O1 [linezolid] + COc1c(N2C[C@@H]3CCCN[C@@H]3C2)c(F)cc2c(=O)c(C(=O)O)cn(C3CC3)c12 [moxifloxacin]	0

Entry source: the supplement of paper PMC8617591
